assay: recombinant UMI read abundance after kanamycin selection (control-corrected) (log10(CPM+1)); higher = more efficient recombination; extreme values may be limits of the assay; sequences stand for … in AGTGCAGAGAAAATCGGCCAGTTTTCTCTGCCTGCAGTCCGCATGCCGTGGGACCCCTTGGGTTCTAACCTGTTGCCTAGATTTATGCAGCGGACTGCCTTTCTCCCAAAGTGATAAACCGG…AGGTTGGTTTCACT; site = the 11-nt donor
Can you tell me recombinant UMI read abundance (log10) for the items I'm about to list?
Give bare numbers.

Req: So what's the measured recombinant UMI read abundance (log10) for this one? GTTGAGACATGGACCGGTTTTCCCGGTAATCCGTATTTGGT (site GTTGAGACTAC)
Resp: 0.775

Please state, for each entry, its recorded recombinant UMI read abundance (log10).
1. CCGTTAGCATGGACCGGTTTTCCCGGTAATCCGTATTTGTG (site CCGTTACCTCA)
2. ACAGTATCATGGACCGGTTTTCCCGGTAATCCGTATTTGCT (site ACAGTATCTGG)
3. CTCATTTCATGGACCGGTTTTCCCGGTAATCCGTATTTGTG (site CTCATTTCTCA)
4. TAACTGCCATGGACCGGTTTTCCCGGTAATCCGTATTTGTG (site TAACTGCCTCA)
5. AGCTAGACATGGACCGGTTTTCCCGGTAATCCGTATTTGGG (site ATCTAGACTCC)
6. TGCTATGCATGGACCGGTTTTCCCGGTAATCCGTATTTGGT (site TGCTAAGCTAC)
7. CCTAATACATGGACCGGTTTTCCCGGTAATCCGTATTTGCC (site CCTAATACTGA)

Resp:
1: 0; 2: 2.29; 3: 0; 4: 0.00877; 5: 0.0227; 6: 0.0239; 7: 0

---

Give measured recombinant UMI read abundance (log10) for each item. Keep answers brief.
assay: recombinant UMI read abundance after kanamycin selection (control-corrected) (log10(CPM+1)); higher = more efficient recombination; extreme values may be limits of the assay; sequences stand for … in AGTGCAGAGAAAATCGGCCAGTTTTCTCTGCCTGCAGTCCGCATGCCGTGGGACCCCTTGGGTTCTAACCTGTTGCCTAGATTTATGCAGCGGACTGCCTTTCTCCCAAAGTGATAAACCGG…AGGTTGGTTTCACT; site = the 11-nt donor
Answers are plain numbers.

Req: Quick check: recombinant UMI read abundance (log10) of CTCCCTACATGGACCGGTTTTCCCGGTAATCCGTATTTGAA (site CTCCCTACTAT) ?
Resp: 0.112

Req: Looking for the measured recombinant UMI read abundance (log10) of TAGAATACATGGACCGGTTTTCCCGGTAATCCGTATTTGCT (site TAGAATACTGG) , can you help?
Resp: 0

Quick batch: recombinant UMI read abundance (log10) for everything below.
1. AGGCCGGCATGGACCGGTTTTCCCGGTAATCCGTATTTGGC (site GGGCCGGCTGC)
2. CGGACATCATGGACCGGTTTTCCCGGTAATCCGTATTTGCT (site CCGACATCTAG)

Resp:
1: 0; 2: 0.954

For each listed entry, give its recombinant UMI read abundance (log10).
1. AAAGTACCATGGACCGGTTTTCCCGGTAATCCGTATTTGCG (site AAAGTACCTCG)
2. CATATCTCATGGACCGGTTTTCCCGGTAATCCGTATTTGAC (site CATATCTCTGT)
3. TGGACGGCATGGACCGGTTTTCCCGGTAATCCGTATTTGGC (site TGGGCGGCTGC)
4. TACTTGACATGGACCGGTTTTCCCGGTAATCCGTATTTGGT (site TACTTGACTAC)

Resp:
0.0963
2.52
0
0.209

---

assay: recombinant UMI read abundance after kanamycin selection (control-corrected) (log10(CPM+1)); higher = more efficient recombination; extreme values may be limits of the assay; sequences stand for … in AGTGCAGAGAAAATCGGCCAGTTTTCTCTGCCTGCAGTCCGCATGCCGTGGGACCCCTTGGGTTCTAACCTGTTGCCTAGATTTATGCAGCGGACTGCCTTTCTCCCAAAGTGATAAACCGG…AGGTTGGTTTCACT; site = the 11-nt donor
Decision: recombinant UMI read abundance (log10) compared against 0.9; not below it gives Fulfilled, below it gives Not fulfilled.

Below, 8 sequences whose answers are already recorded.
Req: Does recombinant UMI read abundance (log10) meet or surpass 0.9 for CAATTGGCATGGACCGGTTTTCCCGGTAATCCGTATTTGGA (site CACTTGGCTTC) ?
Resp: Not fulfilled

Req: Determine whether measured recombinant UMI read abundance (log10) meets or exceeds 0.9 for ACGCATCCATGGACCGGTTTTCCCGGTAATCCGTATTTGAC (site ACGCATCCTGT)
Resp: Fulfilled

Req: Does recombinant UMI read abundance (log10) meet or surpass 0.9 for GAATAGACATGGACCGGTTTTCCCGGTAATCCGTATTTGCC (site GAATAGACTGG) ?
Resp: Fulfilled

Req: # check: recombinant UMI read abundance (log10) of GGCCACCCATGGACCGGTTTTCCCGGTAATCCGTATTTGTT (site TGCCACCCTAA) is greater than or equal to 0.9
Resp: Not fulfilled

Req: Is reported recombinant UMI read abundance (log10) greater than or equal to 0.9 here: CACTTGTCATGGACCGGTTTTCCCGGTAATCCGTATTTGGA (site CACTTGCCTTC)
Resp: Not fulfilled

Req: Test whether the sequence GCAACTGCATGGACCGGTTTTCCCGGTAATCCGTATTTGCC (site GCCACTGCTGG) records recombinant UMI read abundance (log10) of 0.9 or higher.
Resp: Not fulfilled

Req: Confirm if recombinant UMI read abundance (log10) reported for the sequence CCGCAGTCATGGACCGGTTTTCCCGGTAATCCGTATTTGGC (site CCGCAGTCTGC) is 0.9 or above.
Resp: Not fulfilled

Req: Could you verify whether the entry CAAGGCCCATGGACCGGTTTTCCCGGTAATCCGTATTTGGC (site CAAGGCCCTGC) shows recombinant UMI read abundance (log10) of no less than 0.9?
Resp: Fulfilled

More entries:
Req: Kindly determine if recombinant UMI read abundance (log10) recorded for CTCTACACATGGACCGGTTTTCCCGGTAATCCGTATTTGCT (site CTATACACTAG) is above or exactly 0.9.
Resp: Not fulfilled

Req: State whether the measured recombinant UMI read abundance (log10) reaches 0.9, counting equality as reaching it, for TGACATTCATGGACCGGTTTTCCCGGTAATCCGTATTTGCT (site TGACATTCTAG)
Resp: Fulfilled

Req: Is recombinant UMI read abundance (log10) for ACTCGAACATGGACCGGTTTTCCCGGTAATCCGTATTTGAG (site ACTAGAACTCT) at or above 0.9?
Resp: Not fulfilled

Req: Please indicate if the recorded recombinant UMI read abundance (log10) for CATTCAGCATGGACCGGTTTTCCCGGTAATCCGTATTTGCA (site CATTCAGCTTG) meets or exceeds 0.9.
Resp: Fulfilled

---

assay: recombinant UMI read abundance after kanamycin selection (control-corrected) (log10(CPM+1)); higher = more efficient recombination; extreme values may be limits of the assay; sequences stand for … in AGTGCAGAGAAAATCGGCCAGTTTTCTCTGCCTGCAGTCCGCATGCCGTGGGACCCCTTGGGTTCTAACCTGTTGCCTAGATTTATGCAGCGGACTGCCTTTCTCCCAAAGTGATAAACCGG…AGGTTGGTTTCACT; site = the 11-nt donor
Provide the reported recombinant UMI read abundance (log10) of each item.
Give bare numbers.

Reference set (2 entries):
Req: Which measured recombinant UMI read abundance (log10) value corresponds to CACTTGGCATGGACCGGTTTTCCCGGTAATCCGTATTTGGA (site CACTTGGCTTA) ?
Resp: 1.12

Req: Name the reported recombinant UMI read abundance (log10) value associated with the sequence GCGATAACATGGACCGGTTTTCCCGGTAATCCGTATTTGCT (site GCGATAACTAG)
Resp: 2.43

Next sequence, please.
Req: recombinant UMI read abundance (log10) lookup needed for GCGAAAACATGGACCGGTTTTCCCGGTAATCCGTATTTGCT (site GCGAAAACTAC) , thanks.
Resp: 0

---

Please respond with reported recombinant barcode read abundance (log10) for every item in the list.
test: recombinant barcode read abundance after kanamycin selection (control-corrected) (log10(CPM+1)); higher = more efficient recombination; sequences stand for … in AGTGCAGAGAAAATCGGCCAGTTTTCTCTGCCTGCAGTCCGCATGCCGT…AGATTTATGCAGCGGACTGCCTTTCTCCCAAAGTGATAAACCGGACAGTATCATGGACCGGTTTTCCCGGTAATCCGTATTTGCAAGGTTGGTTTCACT; site = the 11-nt target
Answers are plain numbers.

Solved cases below.
Req: Tell me the measured recombinant barcode read abundance (log10) of CCGGGGTCTTGGGTTCTAACCTGTTGCCT (site GCGGGGTCTAG) , please.
Resp: 0.0665

Req: Record request: recombinant barcode read abundance (log10) value, item CTCTTGGCTTGGGTTCTAACCTGTTGCCT (site CTCTCGGCTAG)
Resp: 0.139

Req: What measured recombinant barcode read abundance (log10) goes with AGATGAGCTTGGGTTCTAACCTGTTGCGG (site AAATGGGCTCC) ?
Resp: 0.0978

Req: # recombinant barcode read abundance (log10) lookup, item ACGAGCGCTTGGGTTCTAACCTGTTGCCT (site ACGACCGCTAG)
Resp: 0.0589

Req: Give its recombinant barcode read abundance (log10) value. Item: TTAGTCCCTTGGGTTCTAACCTGTTGCCT (site TTAGTTCCTAG)
Resp: 0.0847

Req: I have this sequence here, GAGGACTCTTGGGTTCTAACCTGTTGCCA (site GAGGACTCTTG) , and I need its recorded recombinant barcode read abundance (log10).
Resp: 2.27

Req: Fill in the blank: the reported recombinant barcode read abundance (log10) of CTCTGGGCTTGGGTTCTAACCTGTTGCCT (site CTCTTGGCTAG) is ____.
Resp: 0.198

Req: recombinant barcode read abundance (log10) lookup needed for ATCGCTTCTTGGGTTCTAACCTGTTGCCT (site ACCGCTTCTAG) , thanks.
Resp: 0.272

Req: Recorded recombinant barcode read abundance (log10) for AAGGTCCCTTGGGTTCTAACCTGTTGCCA (site AAGGTCCCTTG) , please?
Resp: 1.85

Req: Which recombinant barcode read abundance (log10) reading was recorded for the sequence GGACGAGCTTGGGTTCTAACCTGTTGCTG (site ATCTATACTAG) ?
Resp: 0.0905

Please go through the list and note recombinant barcode read abundance (log10) for each sequence.
1. AGGAACTCTTGGGTTCTAACCTGTTGCCT (site AGGAACTCTAG)
2. TGATATGCTTGGGTTCTAACCTGTTGCCT (site TGAGATGCTAG)

Resp:
2.52
0.0846

Provide each entry's recombinant barcode read abundance (log10) from the list below.
1. CTTGAGCCTTGGGTTCTAACCTGTTGCGT (site GTTGAGTCTAC)
2. TATTATACTTGGGTTCTAACCTGTTGCGT (site TATTATACTAG)
3. GGGAACCCTTGGGTTCTAACCTGTTGCTT (site GGGAACCCTCA)
4. GCACCCTCTTGGGTTCTAACCTGTTGCCT (site GCACTCTCTAG)
5. TGACAGGCTTGGGTTCTAACCTGTTGCAG (site TGACAGGCTCT)
6. TAGTACTCTTGGGTTCTAACCTGTTGCTG (site TAGTACTCTGA)
7. TATAGTACTTGGGTTCTAACCTGTTGCCT (site TATTGTCCTAG)
8. GTGGTATCTTGGGTTCTAACCTGTTGCCT (site GTGGTAGCTAG)

Resp:
1: 0.0339; 2: 0.0727; 3: 0.386; 4: 0.0191; 5: 1.88; 6: 0.053; 7: 0.0337; 8: 0.312

Batch of 2 sequences: report recombinant barcode read abundance (log10) for each.
1. GTCAATCCTTGGGTTCTAACCTGTTGCGG (site CGACGAACTAG)
2. GGTCCACCTTGGGTTCTAACCTGTTGCCT (site CGTCCACCTAG)

Resp:
0.138
0.181
